system: SK-MEL-28; assay: NCI tumour cell line growth inhibition, 48 h
The source made the active and inactive calls. No stated cut-off is given here; in the data, active = GI50 up to about 1.1 µM and inactive = higher.
OUTCOME MEASURE: GI50

MOLECULE	TEST RESULT
COC(=O)/C=C\n1nc(Br)c(=O)[nH]c1=O	> 100 µM (inactive)
COc1ccc(CC2Cc3ccccc3CC(=O)N2)cc1OC (stereo not drawn)	> 100 µM (inactive)
Cc1cccc(-c2nnc(S)[nH]2)c1	> 100 µM (inactive)
CCOC(=O)N1CCC2C(=C(C)C(C)C3=C2C(=O)c2ccccc2C3=O)C1 (stereo not drawn)	5.05 µM (inactive)
CC(C)[C@@H]1NC(=O)[C@H]2N=C(O[C@@H]2C)[C@@H]2CCCN2C(=O)[C@H](Cc2ccccc2)NC(=O)[C@@H]2CSC(=N2)[C@@H](Cc2ccccc2)NC(=O)[C@@H]2CSC1=N2	> 50 µM (inactive)
N=C(N)N/N=C/c1c(-c2ccc(Cl)cc2)nc2sccn12	1.85 µM (inactive)
CSc1nn(C)cc2nc(C)nc1-2	> 100 µM (inactive)
O=C1OC(CN2CCN(c3ccccc3)CC2)CN1C(=S)Nc1ccccc1 (stereo not drawn)	> 100 µM (inactive)
CCOC(=O)c1cccc(NC(=O)CBr)c1	2.62 µM (inactive)
CCCCCC1CC=CC(NC(=O)OCc2ccccc2)C1/C=C/CCCC1OCCO1 (stereo not drawn)	> 36.5 µM (inactive)
CCOC(=O)c1nc2ccc(OC)cc2c2c1Cc1ccccc1-2	> 100 µM (inactive)
Cc1nc2ccccc2c(=O)n1NC(=S)Nc1cccc(Cl)c1	> 100 µM (inactive)
CSC1CC2C(CC1(C)O)C2(C)C (stereo not drawn)	> 100 µM (inactive)
CC(=O)OCc1cc(=O)n2c([nH]c3ccccc32)c1C#N	82.6 µM (inactive)
Cc1c(C(=O)CC(=O)C(=O)Nc2cc(Cl)ccc2Cl)[n+]([O-])c2ccccc2[n+]1[O-]	43.1 µM (inactive)
O=S(O)c1cc(Cl)cc(Cl)c1OCc1ccccc1	> 100 µM (inactive)
O=C(CC(C(=O)c1ccco1)c1cccs1)c1cccs1 (stereo not drawn)	42.7 µM (inactive)
CCOC(=O)C12CCCC1(O)N(NC(=O)c1cccc(Cl)c1)C(C)=C2C(=O)OC (stereo not drawn)	> 100 µM (inactive)
CC1CC=CC(O)C1 (stereo not drawn)	> 100 µM (inactive)
CCN(CC)CC(=O)NC1c2ccccc2Oc2c(C)cccc21 (stereo not drawn)	> 100 µM (inactive)
[N-]=[N+]=NC1C2CC3CC(C2)CC1C3 (stereo not drawn)	> 100 µM (inactive)
CCOC(=O)C(Cc1c(-c2[nH]c3ccccc3c2CC(NC(=O)CNC(C)=O)C(=O)OCC)[nH]c2ccccc12)NC(=O)CNC(C)=O (stereo not drawn)	45.4 µM (inactive)
COC(=O)N1CC(=O)C(C(=O)NC23CC4CC(CC(C4)C2)C3)C1 (stereo not drawn)	66.4 µM (inactive)

###

tested on: SK-MEL-5; assay: NCI tumour cell line growth inhibition, 48 h
Active and inactive are the calls of the source. Cut-off read from the data, not from the text of the source: active = GI50 up to about 1.1 µM and inactive = higher.
OUTCOME MEASURE: GI50

> print(dat)
                                    compound  measured.on          test.result
 1  O=C(Nc1nnc(-c2ccc(Cl)cc2)o1)C(SC(=S)N1CCCCC1)c1ccccc1 (stereo not given)     SK-MEL-5   15.7 µM (inactive)
 2  CC(C)(C)c1cc(C(C)(C)C)c(SSc2c(C(C)(C)C)cc(C(C)(C)C)c(O)c2O)c(O)c1O     SK-MEL-5   11.7 µM (inactive)
 3       CCOC(=O)CCCSCCCC(=O)CCCSCCCC(=O)OCC     SK-MEL-5  > 100 µM (inactive)
 4  CCOC(=O)CCC(NC(=O)c1ccc(Oc2nc3ccc(C(F)(F)F)cc3nc2-c2ccccc2)cc1)C(=O)OCC (stereo not given)     SK-MEL-5   45.3 µM (inactive)
 5     Nc1nc(SCc2ccccc2)c2ncn(Cc3ccccc3)c2n1     SK-MEL-5   > 63 µM (inactive)
 6  CCCCCCN(C(=O)Oc1ccccc1)C(C#N)c1ccccc1 (stereo not given)     SK-MEL-5  > 100 µM (inactive)
 7  Cc1nc(-n2nc(-c3ccccc3)cc2-c2ccccc2)sc1C(=O)/C=C/c1ccc(Cl)cc1     SK-MEL-5   13.2 µM (inactive)
 8  Cc1ccccc1C(C#N)/C(=N/NC(N)=S)C(=O)Nc1c(C)cccc1C (stereo not given)     SK-MEL-5   46.3 µM (inactive)
 9   O=C(O)c1ccc(Nc2nc3ccccc3nc2-c2cccs2)cc1     SK-MEL-5  > 100 µM (inactive)
10  CC1(C)/C(=N\NC(N)=O)C2CCC1C2 (stereo not given)     SK-MEL-5  > 100 µM (inactive)

###

test system: SR; assay: NCI tumour cell line growth inhibition, 48 h
The source made the active and inactive calls. No stated cut-off is given here; in the data, active = GI50 up to about 1.1 µM and inactive = higher.
Consider the following molecules and their measured GI50 readings.
OUTCOME MEASURE: GI50

> print(dat)
                                    molecule  outcome.measure           test.result
 1  COC(=O)N1CC(=O)C(C(=O)NC23CC4CC(CC(C4)C2)C3)C1 (stereo not given)             GI50    48.3 µM (inactive)
 2    Cc1ccc(NCCN(C)C)c2c(=O)c3cc(O)ccc3sc12             GI50     0.241 µM (active)
 3  COC(=O)C12OCC34C(CC5C(C)C6=CC(=O)OC6=CC5(C)C3C(O)C1O)OC(=O)C(O)C24 (stereo not given)             GI50    < 0.01 µM (active)
 4      COc1cc(/C=C(\C)[N+](=O)[O-])cc(OC)c1             GI50    3.01 µM (inactive)
 5  [N-]=[N+]=NC1C2CC3CC(C2)CC1C3 (stereo not given)             GI50   > 100 µM (inactive)
 6     Nc1nc(SCc2ccccc2)c2ncn(Cc3ccccc3)c2n1             GI50  > 56.9 µM (inactive)
 7  COC(=O)C12C3C4C1C1C2C3C41C(=O)OC(C)(C)C (stereo not given)             GI50    19.2 µM (inactive)
 8  CC(C)(C)c1cc(C(C)(C)C)c(SSc2c(C(C)(C)C)cc(C(C)(C)C)c(O)c2O)c(O)c1O             GI50    2.94 µM (inactive)
 9  COC(=O)C1=C(C)NC2=C(C(=O)c3ccccc32)C1c1cn(-c2ccccc2)nc1-c1ccccc1 (stereo not given)             GI50       2 µM (inactive)
10  CCOC(=O)C12CCCC1(O)N(NC(=O)c1cccc(Cl)c1)C(C)=C2C(=O)OC (stereo not given)             GI50      53 µM (inactive)

###

Consider the following molecules and their measured GI50 readings.
tested on: ACHN; test: NCI tumour cell line growth inhibition, 48 h
The source made the active and inactive calls. Rule as the data show it: active = GI50 up to about 1.1 µM and inactive = higher.

MOLECULE	GI50
CC(C)CC(N)C(=O)NC(C(=O)NC(CCCNC(=N)N)C(=O)NC(CS)C(=O)NC1CSCC(C(=O)NC(Cc2ccccc2)C(=O)NC(C(=O)NC(CCCNC(=N)N)C(=O)O)C(C)C)NC(=O)C2CCCN2C(=O)C(CCCCN)NC(=O)C2CCCN2C(=O)C2CCCN2C(=O)C(Cc2ccc(O)cc2)NC(=O)C(CO)NC(=O)C(CCCCN)NC(=O)C(C(C)O)NC(=O)C(Cc2c[nH]c3ccccc23)NC1=O)C(C)C (stereo not drawn)	> 25 µM (inactive)
S=C1NC2=C(COc3ccccc32)C(c2ccc(Cl)cc2)N1 (stereo not drawn)	22.9 µM (inactive)
O/N=C/c1cc2c(cc1Br)OCO2	> 100 µM (inactive)
CCOC(=O)c1nc2ccc(OC)cc2c2c1Cc1ccccc1-2	> 100 µM (inactive)
COc1cc(C(C)=O)cc(C(=O)N(C(C)C)C(C)C)c1[Si](C)(C)C	> 100 µM (inactive)
CCn1cc(C(=O)O)c(=O)c2cc3c(cc21)S(=O)(=O)CC3	> 100 µM (inactive)
COc1ccccc1-n1cnc2c1=NC(C)(C)NC=2C(N)=O	> 100 µM (inactive)
CCCCCCCCCCCCCCCCOP(=O)(O)OCC(N)C(=O)O (stereo not drawn)	16.3 µM (inactive)

###

Consider the following compounds and their measured GI50 readings.
tested on: 786-0; assay: NCI tumour cell line growth inhibition, 48 h
Activity calls are given as the source filed them. No stated cut-off is given here; in the data, active = GI50 up to about 1.1 µM and inactive = higher.
OUTCOME MEASURE: GI50

> print(dat)
                                    compound          test.result
 1            Cn1cnc([N+](=O)[O-])c1SCC(=O)O  > 100 µM (inactive)
 2  Nc1c(S(=O)(=O)c2ccccc2)c2nc3ccccc3nc2n2c1nc1ccccc12   8.09 µM (inactive)
 3  CN(C(=O)C12C3C4C1C1C2C3C41C(=O)C(C)(C)C)C(C)(C)C (stereo not given)  > 100 µM (inactive)
 4  O=c1/c(=C/c2ccc([N+](=O)[O-])o2)sc2n1[C@@H](c1ccc3c(c1)OCO3)C=C(c1cc(F)c(Cl)cc1Cl)N=2   9.51 µM (inactive)
 5        Cc1cc(C(=O)CSC(=S)SC(C)(C)C)ccc1Cl   22.3 µM (inactive)
 6  O=C1C2C(C(=O)N1c1ccccc1)C1(c3ccccc3)OC2(c2ccccc2)c2ccccc21 (stereo not given)  > 100 µM (inactive)
 7  OC(c1ccsc1)c1cc2ccccc2s1 (stereo not given)   > 10 µM (inactive)
 8     Cc1cccc(C)c1NC(=O)C(=O)Cc1nc2ccccc2s1  > 100 µM (inactive)
 9  O=C(O)C[C@@H](Cl)[C@H](NC(=O)OCc1ccccc1)C(=O)O  > 100 µM (inactive)
10                COC(=O)c1cccn1C(=O)n1cccc1  > 100 µM (inactive)
